- testedSystem: Cannabinoid receptor 1 (Homo sapiens, UniProt P21554)
- Sequence (P21554 whole entry): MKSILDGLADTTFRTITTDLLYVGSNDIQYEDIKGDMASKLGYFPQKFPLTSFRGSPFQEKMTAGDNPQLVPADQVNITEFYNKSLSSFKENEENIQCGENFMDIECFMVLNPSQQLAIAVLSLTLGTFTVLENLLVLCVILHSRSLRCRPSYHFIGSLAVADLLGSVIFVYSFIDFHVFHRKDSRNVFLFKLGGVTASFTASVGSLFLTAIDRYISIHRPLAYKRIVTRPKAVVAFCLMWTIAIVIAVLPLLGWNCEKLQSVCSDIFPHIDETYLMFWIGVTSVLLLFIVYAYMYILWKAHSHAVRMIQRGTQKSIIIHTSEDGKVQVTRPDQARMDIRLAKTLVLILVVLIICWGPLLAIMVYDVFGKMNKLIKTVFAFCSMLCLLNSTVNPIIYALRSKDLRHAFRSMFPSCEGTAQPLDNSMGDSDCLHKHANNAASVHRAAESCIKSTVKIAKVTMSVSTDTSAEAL
- assayNotes: Displacement of [3H]CP-55,940 from recombinant human CB1 receptor expressed in HEK cells
readout: pKi
Numbers only, as −log10 of the molar value.

// solved cases for pKi follow
# smiles, quantitativeReadout
records = [
    ("Cc1c(C(=O)NCc2ccc(Cl)c(Cl)c2)nn(-c2ccc(Cl)c(Cl)c2)c1-n1cccc1Cl", 7.13),
    ("CCc1c(C(=O)NC2CCCCC2)nn(-c2ccc(Cl)cc2Cl)c1-n1c(C)ccc1C", 8.17),
    ("CCc1c(C(=O)NCc2ccc(Cl)c(Cl)c2)nn(-c2ccc(Cl)c(Cl)c2)c1-n1c(C)ccc1C", 6.02),
    ("Cc1c(C(=O)NC2CCCCC2)nn(-c2ccc(Cl)cc2Cl)c1-n1cc2c(c1)CCCC2", 8.64),
]

Look at each compound and report its pKi.
1. CCc1c(C(=O)NCc2ccc(Cl)c(Cl)c2)nn(-c2ccc(Cl)cc2Cl)c1-n1cccc1
2. Cc1c(C(=O)NC2CCCCC2)nn(-c2ccc(Cl)c(Cl)c2)c1-n1c(Cl)ccc1Cl

Resp:
1. 7.31
2. 8.25

====

- Species on record: Homo sapiens
- assayNotes: Selectivity index, ratio of Ki for recombinant human CB2 receptor to Ki for recombinant human CB1 receptor
Please go through the items and note down their Ratio Ki.
Give bare numbers.

Here are 5 compounds together with their reported answers.
# smiles, Ratio Ki
records = [
    ("CCc1c(C(=O)NCc2ccc(Cl)c(Cl)c2)nn(-c2ccc(Cl)cc2Cl)c1-n1cccc1", 9.3),
    ("CCc1ccc(CC)n1-c1c(C)c(C(=O)NC2CCCCC2)nn1-c1ccc(Cl)c(Cl)c1", 3),
    ("Cc1c(C(=O)NC2CCCCC2)nn(-c2ccc(Cl)c(Cl)c2)c1-n1c(Cl)ccc1Cl", 0.23),
    ("Cc1c(C(=O)NCc2ccc(Cl)c(Cl)c2)nn(-c2ccc(Cl)cc2Cl)c1-n1cccc1Cl", 3.9),
    ("CCc1c(C(=O)NC2CCCCC2)nn(-c2ccc(Cl)cc2Cl)c1-n1c(C)ccc1C", 112),
]

Attention now turns to another entry.
Req: Report Ratio Ki for CCc1c(C(=O)NCc2ccc(Cl)c(Cl)c2)nn(-c2ccc(Cl)c(Cl)c2)c1-n1cccc1 please.
Resp: 0.065

====

- testedSystem: Cannabinoid receptor 2 (Homo sapiens, UniProt P34972)
- Sequence (P34972 whole entry): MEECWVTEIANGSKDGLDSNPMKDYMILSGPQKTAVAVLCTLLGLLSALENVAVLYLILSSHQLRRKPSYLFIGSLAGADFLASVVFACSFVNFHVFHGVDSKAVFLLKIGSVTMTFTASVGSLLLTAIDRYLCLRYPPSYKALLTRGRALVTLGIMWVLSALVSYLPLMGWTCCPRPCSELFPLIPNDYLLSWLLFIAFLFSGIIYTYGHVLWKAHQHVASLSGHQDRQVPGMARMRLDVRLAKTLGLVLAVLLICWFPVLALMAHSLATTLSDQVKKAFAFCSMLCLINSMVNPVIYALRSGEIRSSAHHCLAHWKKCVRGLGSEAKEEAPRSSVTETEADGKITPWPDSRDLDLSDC
- assayNotes: Displacement of [3H]CP-55,940 from recombinant human CB2 receptor expressed in HEK cells
readout: log10(Ki) (log10 of the value in nM)
Give log10 of Ki, with Ki taken in nM.

# example entries with known answers
# smiles, readout, quantitativeReadout
data = [
    ("CCc1ccc(CC)n1-c1c(C)c(C(=O)NC2CCCCC2)nn1-c1ccc(Cl)c(Cl)c1", "log10(Ki)", 2.61),
    ("Cc1c(C(=O)NCc2ccc(Cl)c(Cl)c2)nn(-c2ccc(Cl)cc2Cl)c1-n1cccc1Cl", "log10(Ki)", 1.99),
    ("CCc1c(C(=O)NC2CCCCC2)nn(-c2ccc(Cl)cc2Cl)c1-n1c(C)ccc1C", "log10(Ki)", 2.88),
]

Provide log10(Ki) values for the following items, in order.
1. Cc1c(C(=O)NCc2ccc(Cl)c(Cl)c2)nn(-c2ccc(Cl)cc2Cl)c1-n1cc2c(c1)CCCC2
2. Cc1c(C(=O)NCc2ccc(Cl)c(Cl)c2)nn(-c2ccc(Cl)c(Cl)c2)c1-n1c(Cl)ccc1Cl

Resp:
1.86
2.21
